- Test System: Arabidopsis thaliana SHMT
- Protocol Description: SHMT activity assay (ED50 SHMT), coupled with N5,N10-CH2-THF dehydrogenase, NADH at 340 nm
- Type: biochemical
- Conditions: Table 2, Arabidopsis thaliana SHMT enzyme assay; values given as upper bounds
pEC50: −log10 of the molar value.
Property Name: pEC50

Example entries begin here.
Compound | Property Name | Test Result
Cc1ccc(Oc2cc(Cl)cc(C3(C4CCC4)C(C#N)=C(N)Oc4[nH]nc(C)c43)c2)cc1 (stereo not shown) [Compound 2.240] | pEC50 | > 8.00
Cc1n[nH]c2c1C(c1cc(Cl)c(F)c(Cl)c1)(C1CCC1)C(C#N)=C(N)O2 (stereo not shown) [Compound 2.242] | pEC50 | > 8.00
N#CC1=C(N)Oc2[nH]ncc2C1(c1cc(C#N)cc(C#N)c1)C1CCC1 (stereo not shown) [Compound 2.286] | pEC50 | > 8.00

# next compound below
Lookup: Report pEC50 for COc1n[nH]c2c1C(c1cc(Br)cc(C#N)c1)(C1CCC1)C(C#N)=C(N)O2 (stereo not shown) [Compound 2.388] please.
Found: > 8.00

* * *

Parameter: pEC50. Scope: all listed entries.
- Test System: Arabidopsis thaliana SHMT
- Protocol Description: SHMT activity assay (ED50 SHMT), coupled with N5,N10-CH2-THF dehydrogenase, NADH at 340 nm
- Type: biochemical
- Conditions: Arabidopsis thaliana SHMT enzyme assay; values given as upper bounds
pEC50: −log10 of the molar value.

Example entries begin here.
Compound | pEC50
CCOC(=O)CS(=O)(=O)N(C)c1cc(C#N)cc(C2(C3CCC3)C(C#N)=C(N)Oc3[nH]nc(C)c32)c1 (stereo not shown) [Compound 2.719] | > 7.00
Cc1n[nH]c2c1C(c1ccc(CC#N)c(-c3nnn[nH]3)c1)(C1CCC1)C(C#N)=C(N)O2 (stereo not shown) [Compound 2.708] | > 5.00
Cc1n[nH]c2c1C(c1cc(C#N)cc(N(C)C(=O)CCCC#N)c1)(C(C)C)C(C#N)=C(N)O2 (stereo not shown) [Compound 2.664] | > 8.00
Cc1n[nH]c2c1C(c1cc(CCC#N)cc(-c3nnn[nH]3)c1)(C(C)C)C(C#N)=C(N)O2 (stereo not shown) [Compound 2.710] | > 7.00

Lookup: Can you look up pEC50 on Arabidopsis thaliana SHMT for Cc1n[nH]c2c1C(c1cc(Cc3nnn[nH]3)cc(-c3nnn[nH]3)c1)(C(C)C)C(C#N)=C(N)O2 (stereo not shown) [Compound 2.735] ?
Found: > 5.00

Lookup: What do we get for COC(=O)CCS(=O)(=O)N(C)c1cc(C#N)cc(C2(C3CCC3)C(C#N)=C(N)Oc3[nH]nc(C)c32)c1 (stereo not shown) [Compound 2.723] ?
Found: > 7.00

Lookup: What do we get for Cc1n[nH]c2c1C(c1cc(C#N)cc(N(C)C(=O)CC#N)c1)(C(C)C)C(C#N)=C(N)O2 (stereo not shown) [Compound 2.662] ?
Found: > 8.00

* * *

Parameter: EC50. Scope: all listed entries.
- Test System: Arabidopsis thaliana SHMT
- Protocol Description: SHMT activity assay (ED50 SHMT), coupled with N5,N10-CH2-THF dehydrogenase, NADH at 340 nm
- Assay type: biochemical
- Conditions: Table 2; values given as upper bounds
- Experimental: Determination of the ED50 SHMT was carried out as described hereinunder. Purification of Arabidopsis thaliana SHMT The following buffers were used during the purification protocol: […] The rate of N5,N10-CH2-THF formation catalyzed by SHMT was monitored at 340 nm by coupling with excess N5,N10-CH2-THF dehydrogenase, which converts NAD+to NADH. […] Inhibition of initial velocity was determined by adding various inhibitors of the SHMT reaction and monitored as described. […]

Example entries begin here.
Compound | Property Name | Test Result
CCC1(c2ccc(OS(=O)(=O)c3ccc(Cl)cc3Cl)c(C)c2)C(C#N)=C(N)Oc2[nH]nc(C)c21 (stereo not shown) [Compound 2.59.] | EC50 | < 10000 nM
CCc1n[nH]c2c1C(c1ccc(Cl)cc1)(C1CC1)C(C#N)=C(N)O2 (stereo not shown) [Compound 2.114.] | EC50 | < 100 nM
Cc1n[nH]c2c1C(c1cc(C#N)cc(-c3cc(C(=O)O)cc(C(=O)O)c3)c1)(C1CCC1)C(C#N)=C(N)O2 (stereo not shown) [Compound 2.564] | EC50 | < 1000 nM
CCCCC1(c2cc(Cl)cc(Cl)c2)C(C#N)=C(N)Oc2[nH]nc(C)c21 (racemic) [Compound 2.92.] | EC50 | < 10000 nM
Cc1n[nH]c2c1C(c1cc(C#N)cc(-c3cc(C(=O)O)cc([N+](=O)[O-])c3)c1)(C1CCC1)C(C#N)=C(N)O2 (stereo not shown) [Compound 2.566] | EC50 | < 10 nM
COC(=O)c1cc(-c2cc(C#N)cc(C3(C4CCC4)C(C#N)=C(N)Oc4[nH]nc(C)c43)c2)ccc1Cl (stereo not shown) [Compound 2.509] | EC50 | < 10 nM

Lookup: Report EC50 for COc1ccc(C2(C3CC3)C(C#N)=C(N)Oc3[nH]nc(C)c32)cc1C(F)(F)F (stereo not shown) [Compound 2.150.] please.
Found: < 100 nM

* * *

Parameter: EC50. Scope: all listed entries.
- Test System: Arabidopsis thaliana SHMT
- Protocol Description: SHMT activity assay (ED50 SHMT), coupled with N5,N10-CH2-THF dehydrogenase, NADH at 340 nm
- Type: biochemical
- Conditions: Table 2; values given as upper bounds

Example entries begin here.
Compound | EC50
Cc1n[nH]c2c1C(c1cc(Cl)cc(Oc3ccc(O)c(C(F)(F)F)c3)c1)(C1CCC1)C(C#N)=C(N)O2 (stereo not drawn) [Compound 2.597] | < 100 nM
COC(=O)c1cccc(-c2cc(C#N)cc(C3(C4CCC4)C(C#N)=C(N)Oc4[nH]nc(C)c43)c2)c1 (stereo not drawn) [Compound 2.453] | < 10 nM
Cc1n[nH]c2c1C(c1cc(C#N)cc(N3CCCC3=O)c1)(C1(F)CC1)C(C#N)=C(N)O2 (stereo not drawn) [Compound 2.452] | < 1000 nM
Cc1n[nH]c2c1C(c1ccc(Cl)c(Cl)c1)(C(C)C)C(C#N)=C(N)O2 (stereo not drawn) [Compound 2.135.] | < 100 nM
Cc1n[nH]c2c1C(c1ccc(F)c(Cl)c1)(C1CCC1)C(C#N)=C(N)O2 (stereo not drawn) [Compound 2.182.] | < 100 nM

Lookup: Report EC50 for Cc1n[nH]c2c1C(CC(C)C)(c1ccc(Cl)cc1)C(C#N)=C(N)O2 (stereo not drawn) [Compound 2.142.] please.
Found: < 10000 nM

Lookup: What do we get for CCC1(c2cc(F)c(OC)c(F)c2)C(C#N)=C(N)Oc2[nH]nc(C)c21 (stereo not drawn) [Compound 2.45.] ?
Found: < 1000 nM

Lookup: What do we get for Cc1n[nH]c2c1C(c1cc(Br)cc(OCC(=O)O)c1)(C1CCC1)C(C#N)=C(N)O2 (stereo not drawn) [Compound 2.507] ?
Found: < 10000 nM

Lookup: What do we get for Cc1n[nH]c2c1C(c1cc(Cl)cc(CC(=O)O)c1)(C1CCC1)C(C#N)=C(N)O2 (stereo not drawn) [Compound 2.499] ?
Found: < 10 nM

Lookup: What do we get for CCOC(=O)COc1ccc(-c2cc(C#N)cc(C3(C4CCC4)C(C#N)=C(N)Oc4[nH]nc(C)c43)c2)cc1 (stereo not drawn) [Compound 2.536] ?
Found: < 10 nM

Lookup: What do we get for CCC1(c2ccc(F)c(Cl)c2)C(C#N)=C(N)Oc2[nH]nc(C)c21 (stereo not drawn) [Compound 2.19.] ?
Found: < 100 nM

* * *

- Test System: Arabidopsis thaliana SHMT
- Protocol Description: SHMT activity assay (ED50 SHMT), coupled with N5,N10-CH2-THF dehydrogenase, NADH at 340 nm
- Format: biochemical
- Conditions: Table 2; values given as upper bounds
Parameter: EC50. Scope: all listed entries.

Compound | Test Result
COc1ccc(C2(C(C)C)C(C#N)=C(N)Oc3[nH]nc(C)c32)cc1Cl (stereo not shown) [Compound 2.124.] | < 10 nM
COC(=O)c1cc(Cl)cc(-c2cc(C#N)cc(C3(C4CCC4)C(C#N)=C(N)Oc4[nH]nc(C)c43)c2)c1 (stereo not shown) [Compound 2.517] | < 10 nM
COC(=O)c1ccc(-c2cc(C#N)cc(C3(C4CCC4)C(C#N)=C(N)Oc4[nH]nc(OC)c43)c2)cc1 (stereo not shown) [Compound 2.454] | < 1000 nM
CCCC1(c2cc(Cl)cc(C#N)c2)C(C#N)=C(N)Oc2[nH]nc(CC)c21 (stereo not shown) [Compound 2.577] | < 100 nM

Lookup: Report EC50 for Cc1n[nH]c2c1C(c1cc(Cl)c(Cl)c(Cl)c1)(C1CCC1)C(C#N)=C(N)O2 (stereo not shown) [Compound 2.209.] please.
Found: < 10 nM

Lookup: What do we get for CCCC1(c2cc(Br)cc(C#N)c2)C(C#N)=C(N)Oc2[nH]nc(OC)c21 (stereo not shown) [Compound 2.603] ?
Found: < 1000 nM

Lookup: What do we get for CCC1(c2ccc(Oc3ccccc3)cc2)C(C#N)=C(N)Oc2[nH]nc(C)c21 (stereo not shown) [Compound 2.8.] ?
Found: < 1000 nM

Lookup: What do we get for CCCC1(c2cc(C#N)cc(C#N)c2)C(C#N)=C(N)Oc2[nH]nc(OC)c21 (stereo not shown) [Compound 2.604] ?
Found: < 1000 nM

Lookup: What do we get for N#CC1=C(N)Oc2[nH]nc(C3CC3)c2C1(c1cccc(C(F)(F)F)c1)C1CCC1 (stereo not shown) [Compound 2.171.] ?
Found: < 100 nM

Lookup: What do we get for CCC1(c2ccc(C)c(Br)c2)C(C#N)=C(N)Oc2[nH]nc(C)c21 (stereo not shown) [Compound 2.466] ?
Found: < 100 nM

Lookup: What do we get for Cc1n[nH]c2c1C(c1ccc(OC(F)(F)F)cc1)(C1CCC1)C(C#N)=C(N)O2 (stereo not shown) [Compound 2.183.] ?
Found: < 1000 nM

Lookup: What do we get for CCC1(c2cc(Cl)cc(Cl)c2)C(C#N)=C(N)Oc2[nH]nc(C(C)C)c21 (stereo not shown) [Compound 2.132.] ?
Found: < 1000 nM

Lookup: What do we get for COC(=O)c1cccc(-c2cc(Cl)cc(C3(C4CCC4)C(C#N)=C(N)Oc4[nH]nc(C)c43)c2)c1 (stereo not shown) [Compound 2.456] ?
Found: < 10 nM

Lookup: What do we get for COC(=O)c1cc(-c2cc(C#N)cc(C3(C4CCC4)C(C#N)=C(N)Oc4[nH]nc(C)c43)c2)cc(C(F)(F)F)c1 (stereo not shown) [Compound 2.552] ?
Found: < 100 nM

Lookup: What do we get for CCC1(c2cc(C(F)(F)F)cc(C(F)(F)F)c2)C(C#N)=C(N)Oc2[nH]nc(C(C)C)c21 (stereo not shown) [Compound 2.120.] ?
Found: < 100 nM

Lookup: What do we get for CCCC1(c2cc(Br)cc(C#N)c2)C(C#N)=C(N)Oc2[nH]nc(C)c21 (stereo not shown) [Compound 2.534] ?
Found: < 10 nM
